Where do the numbers come from? From paper PMC5540273.

SYSTEM: IRAK1 (Homo sapiens, UniProt P51617)
Sequence (P51617 whole entry): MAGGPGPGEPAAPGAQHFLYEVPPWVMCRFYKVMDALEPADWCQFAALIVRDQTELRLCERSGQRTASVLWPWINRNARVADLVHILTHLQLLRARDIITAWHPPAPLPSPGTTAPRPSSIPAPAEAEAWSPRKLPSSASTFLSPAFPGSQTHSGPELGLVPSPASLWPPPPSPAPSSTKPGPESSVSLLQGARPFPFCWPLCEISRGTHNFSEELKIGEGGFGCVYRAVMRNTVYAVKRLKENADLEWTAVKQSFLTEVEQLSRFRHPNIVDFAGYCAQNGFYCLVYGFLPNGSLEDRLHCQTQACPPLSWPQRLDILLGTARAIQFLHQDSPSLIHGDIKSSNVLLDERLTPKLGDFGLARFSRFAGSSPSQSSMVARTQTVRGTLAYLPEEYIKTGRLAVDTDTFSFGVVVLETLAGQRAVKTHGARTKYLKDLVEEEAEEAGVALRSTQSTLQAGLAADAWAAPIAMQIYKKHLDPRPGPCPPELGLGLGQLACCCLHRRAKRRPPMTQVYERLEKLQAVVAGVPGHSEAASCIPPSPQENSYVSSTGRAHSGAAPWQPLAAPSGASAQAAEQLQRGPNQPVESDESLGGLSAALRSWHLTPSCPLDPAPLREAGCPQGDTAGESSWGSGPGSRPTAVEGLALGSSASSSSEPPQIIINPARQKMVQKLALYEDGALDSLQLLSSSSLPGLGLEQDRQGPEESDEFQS
ASSAY_METHOD_TEXT: KINOMEscan competition binding
EXPERIMENTAL_SETUP: read-out: %Inh IRAK1
Below, each entry is listed with its recorded inhibition at 1 µM.
PROPERTY_MEASURED: inhibition at 1 µM (%)

{"COMPOUND": "COc1cccc(OC)c1C(=O)Nc1cccc(-c2nn3ccccc3c2-c2ccnc(Nc3cccc(F)c3)n2)c1 [UNC10225310A]", "PROPERTY_MEASURED": "inhibition at 1 µM", "UNIT_LABEL": "%", "DATA_VALUE": 0}
{"COMPOUND": "CS(=O)(=O)Cc1ccc(Nc2nccc(-c3c(-c4cccc(NC(=O)C5CCCCC5)c4)nn4ncccc34)n2)cc1 [UNC10225159A]", "PROPERTY_MEASURED": "inhibition at 1 µM", "UNIT_LABEL": "%", "DATA_VALUE": 24}
{"COMPOUND": "Cc1ccc(NC(=O)Nc2cccc(C(F)(F)F)c2)cc1 [UNC10225187A]", "PROPERTY_MEASURED": "inhibition at 1 µM", "UNIT_LABEL": "%", "DATA_VALUE": 0}
{"COMPOUND": "Cn1cc(-c2cnc(N)c3c(-c4ccc5c(c4)CCN5C(=O)Cc4ccccc4)csc23)cn1 [UNC10225012A]", "PROPERTY_MEASURED": "inhibition at 1 µM", "UNIT_LABEL": "%", "DATA_VALUE": 0}
{"COMPOUND": "O=c1cc(N2CCOCC2)nc2n(Cc3cccc(Cl)c3Cl)c(C3CC3)nn12 [UNC10225469A]", "PROPERTY_MEASURED": "inhibition at 1 µM", "UNIT_LABEL": "%", "DATA_VALUE": 0}

###

SYSTEM: MAP3K1 (Homo sapiens)
Sequence (Q13233 whole entry): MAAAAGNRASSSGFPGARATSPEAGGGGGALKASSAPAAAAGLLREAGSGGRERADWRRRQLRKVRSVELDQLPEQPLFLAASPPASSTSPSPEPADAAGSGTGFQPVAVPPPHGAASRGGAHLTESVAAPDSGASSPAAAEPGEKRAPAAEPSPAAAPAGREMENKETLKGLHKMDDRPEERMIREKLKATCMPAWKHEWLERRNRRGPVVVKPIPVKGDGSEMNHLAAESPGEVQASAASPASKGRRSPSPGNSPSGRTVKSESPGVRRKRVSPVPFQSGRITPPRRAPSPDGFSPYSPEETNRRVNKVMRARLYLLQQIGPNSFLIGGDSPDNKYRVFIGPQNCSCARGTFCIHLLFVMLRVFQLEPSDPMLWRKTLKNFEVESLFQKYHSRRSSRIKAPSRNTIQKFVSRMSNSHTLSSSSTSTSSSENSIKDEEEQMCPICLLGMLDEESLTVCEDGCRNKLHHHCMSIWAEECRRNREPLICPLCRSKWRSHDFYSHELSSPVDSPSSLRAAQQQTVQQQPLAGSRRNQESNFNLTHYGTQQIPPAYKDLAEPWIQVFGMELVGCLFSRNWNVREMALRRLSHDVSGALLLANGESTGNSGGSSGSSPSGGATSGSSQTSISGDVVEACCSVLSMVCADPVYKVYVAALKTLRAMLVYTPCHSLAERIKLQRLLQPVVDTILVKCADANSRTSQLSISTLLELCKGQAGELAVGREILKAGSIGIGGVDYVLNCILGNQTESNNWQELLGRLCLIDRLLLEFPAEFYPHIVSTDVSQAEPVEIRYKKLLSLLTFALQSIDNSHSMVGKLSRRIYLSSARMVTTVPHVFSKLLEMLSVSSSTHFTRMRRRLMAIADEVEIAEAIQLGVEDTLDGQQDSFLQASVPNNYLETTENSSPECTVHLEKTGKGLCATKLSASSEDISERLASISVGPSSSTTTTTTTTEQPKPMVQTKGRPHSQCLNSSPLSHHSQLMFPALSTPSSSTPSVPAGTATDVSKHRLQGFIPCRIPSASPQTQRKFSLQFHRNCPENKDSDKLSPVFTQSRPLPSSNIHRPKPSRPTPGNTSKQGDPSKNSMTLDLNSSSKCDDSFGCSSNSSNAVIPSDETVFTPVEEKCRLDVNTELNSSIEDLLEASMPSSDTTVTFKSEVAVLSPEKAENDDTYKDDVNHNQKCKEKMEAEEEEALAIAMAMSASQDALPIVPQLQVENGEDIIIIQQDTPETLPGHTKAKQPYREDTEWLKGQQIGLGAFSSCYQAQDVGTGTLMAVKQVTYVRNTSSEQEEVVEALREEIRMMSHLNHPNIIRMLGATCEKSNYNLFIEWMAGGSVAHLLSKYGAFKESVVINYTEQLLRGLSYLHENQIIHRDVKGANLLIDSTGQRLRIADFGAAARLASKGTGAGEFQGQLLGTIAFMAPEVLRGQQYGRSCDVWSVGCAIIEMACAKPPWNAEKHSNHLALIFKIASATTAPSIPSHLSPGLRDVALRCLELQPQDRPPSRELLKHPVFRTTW
ASSAY_METHOD_TEXT: KINOMEscan competition binding
EXPERIMENTAL_SETUP: read-out: %Inh MAP3K1

{"COMPOUND": "Cc1ccc(NC(=O)Nc2cccc(C(F)(F)F)c2)cc1 [UNC10225187A]", "inhibition at 1 µM": "0%"}
{"COMPOUND": "Cn1cc(-c2cnc(N)c3c(-c4ccc5c(c4)CCN5C(=O)Cc4ccccc4)csc23)cn1 [UNC10225012A]", "inhibition at 1 µM": "4%"}
{"COMPOUND": "CS(=O)(=O)Cc1ccc(Nc2nccc(-c3c(-c4cccc(NC(=O)C5CCCCC5)c4)nn4ncccc34)n2)cc1 [UNC10225159A]", "inhibition at 1 µM": "30%"}
{"COMPOUND": "COc1cccc(OC)c1C(=O)Nc1cccc(-c2nn3ccccc3c2-c2ccnc(Nc3cccc(F)c3)n2)c1 [UNC10225310A]", "inhibition at 1 µM": "0%"}
{"COMPOUND": "O=c1cc(N2CCOCC2)nc2n(Cc3cccc(Cl)c3Cl)c(C3CC3)nn12 [UNC10225469A]", "inhibition at 1 µM": "14%"}

###

Below, each entry is listed with its recorded inhibition at 1 µM.
SYSTEM: UniProt P51451
Sequence (P51451 whole entry): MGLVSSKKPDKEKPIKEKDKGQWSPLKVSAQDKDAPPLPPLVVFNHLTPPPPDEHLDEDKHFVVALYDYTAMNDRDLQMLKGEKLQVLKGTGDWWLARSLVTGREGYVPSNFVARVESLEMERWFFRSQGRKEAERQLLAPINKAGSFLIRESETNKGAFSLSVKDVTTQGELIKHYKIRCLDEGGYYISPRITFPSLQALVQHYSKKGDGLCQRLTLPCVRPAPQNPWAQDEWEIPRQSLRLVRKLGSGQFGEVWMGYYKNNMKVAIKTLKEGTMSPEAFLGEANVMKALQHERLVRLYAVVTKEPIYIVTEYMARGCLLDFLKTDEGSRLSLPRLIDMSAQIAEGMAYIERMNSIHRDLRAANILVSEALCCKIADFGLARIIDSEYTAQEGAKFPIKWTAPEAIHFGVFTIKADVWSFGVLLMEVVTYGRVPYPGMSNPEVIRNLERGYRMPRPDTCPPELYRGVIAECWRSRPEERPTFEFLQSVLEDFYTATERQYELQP
ASSAY_METHOD_TEXT: KINOMEscan competition binding
EXPERIMENTAL_SETUP: read-out: %Inh BLK
PROPERTY_MEASURED: inhibition at 1 µM (%)

{"COMPOUND": "Cc1ccc(NC(=O)Nc2cccc(C(F)(F)F)c2)cc1 [UNC10225187A]", "SYSTEM": "UniProt P51451", "DATA_VALUE": 0}
{"COMPOUND": "O=c1cc(N2CCOCC2)nc2n(Cc3cccc(Cl)c3Cl)c(C3CC3)nn12 [UNC10225469A]", "SYSTEM": "UniProt P51451", "DATA_VALUE": 0}
{"COMPOUND": "Cn1cc(-c2cnc(N)c3c(-c4ccc5c(c4)CCN5C(=O)Cc4ccccc4)csc23)cn1 [UNC10225012A]", "SYSTEM": "UniProt P51451", "DATA_VALUE": 93}
{"COMPOUND": "COc1cccc(OC)c1C(=O)Nc1cccc(-c2nn3ccccc3c2-c2ccnc(Nc3cccc(F)c3)n2)c1 [UNC10225310A]", "SYSTEM": "UniProt P51451", "DATA_VALUE": 41}
{"COMPOUND": "CS(=O)(=O)Cc1ccc(Nc2nccc(-c3c(-c4cccc(NC(=O)C5CCCCC5)c4)nn4ncccc34)n2)cc1 [UNC10225159A]", "SYSTEM": "UniProt P51451", "DATA_VALUE": 0}

###

SYSTEM: CDKL1 (Homo sapiens)
Sequence (Q00532 whole entry): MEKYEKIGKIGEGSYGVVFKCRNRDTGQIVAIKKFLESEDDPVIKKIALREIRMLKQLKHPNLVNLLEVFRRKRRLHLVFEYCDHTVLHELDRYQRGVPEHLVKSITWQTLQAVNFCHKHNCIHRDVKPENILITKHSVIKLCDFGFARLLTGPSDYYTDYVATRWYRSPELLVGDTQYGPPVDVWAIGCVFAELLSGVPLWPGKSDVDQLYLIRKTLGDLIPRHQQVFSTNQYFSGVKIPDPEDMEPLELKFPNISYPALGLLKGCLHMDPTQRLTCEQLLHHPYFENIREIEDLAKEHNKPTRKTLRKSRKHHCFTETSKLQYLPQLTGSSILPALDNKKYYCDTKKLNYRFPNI
ASSAY_METHOD_TEXT: KINOMEscan competition binding
EXPERIMENTAL_SETUP: read-out: %Inh CDKL1
Each entry gets false (0) if its inhibition at 1 µM stays under 10%, and true (1) if its inhibition at 1 µM is 10% or above.

{"COMPOUND": "Cc1ccc(NC(=O)Nc2cccc(C(F)(F)F)c2)cc1 [UNC10225187A]", "CLASS_NAME": "true (1)"}
{"COMPOUND": "CS(=O)(=O)Cc1ccc(Nc2nccc(-c3c(-c4cccc(NC(=O)C5CCCCC5)c4)nn4ncccc34)n2)cc1 [UNC10225159A]", "CLASS_NAME": "false (0)"}
{"COMPOUND": "Cn1cc(-c2cnc(N)c3c(-c4ccc5c(c4)CCN5C(=O)Cc4ccccc4)csc23)cn1 [UNC10225012A]", "CLASS_NAME": "false (0)"}
{"COMPOUND": "O=c1cc(N2CCOCC2)nc2n(Cc3cccc(Cl)c3Cl)c(C3CC3)nn12 [UNC10225469A]", "CLASS_NAME": "true (1)"}
{"COMPOUND": "COc1cccc(OC)c1C(=O)Nc1cccc(-c2nn3ccccc3c2-c2ccnc(Nc3cccc(F)c3)n2)c1 [UNC10225310A]", "CLASS_NAME": "true (1)"}

###

Below, each entry is listed with its recorded inhibition at 1 µM.
SYSTEM: ANKK1 (Homo sapiens, UniProt Q8NFD2)
Sequence (Q8NFD2 whole entry): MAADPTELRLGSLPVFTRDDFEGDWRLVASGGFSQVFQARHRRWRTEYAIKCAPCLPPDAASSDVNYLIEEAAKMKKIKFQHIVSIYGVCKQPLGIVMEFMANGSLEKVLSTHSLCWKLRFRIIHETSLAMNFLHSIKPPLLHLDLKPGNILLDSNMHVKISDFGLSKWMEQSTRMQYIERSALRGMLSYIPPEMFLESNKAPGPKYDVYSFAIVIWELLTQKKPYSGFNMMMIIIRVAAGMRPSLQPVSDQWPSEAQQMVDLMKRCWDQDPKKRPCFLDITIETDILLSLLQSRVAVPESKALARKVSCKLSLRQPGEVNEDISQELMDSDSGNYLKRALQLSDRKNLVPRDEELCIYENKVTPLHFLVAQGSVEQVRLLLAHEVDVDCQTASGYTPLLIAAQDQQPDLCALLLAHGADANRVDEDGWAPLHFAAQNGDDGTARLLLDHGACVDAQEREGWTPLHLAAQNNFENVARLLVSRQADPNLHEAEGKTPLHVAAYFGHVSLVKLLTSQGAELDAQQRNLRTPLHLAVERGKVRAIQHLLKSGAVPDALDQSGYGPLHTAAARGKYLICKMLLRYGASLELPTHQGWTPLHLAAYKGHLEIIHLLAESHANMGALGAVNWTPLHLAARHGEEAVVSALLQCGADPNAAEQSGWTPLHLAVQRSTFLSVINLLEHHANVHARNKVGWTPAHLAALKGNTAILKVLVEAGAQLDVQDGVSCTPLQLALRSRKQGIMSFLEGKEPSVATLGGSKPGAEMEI
ASSAY_METHOD_TEXT: KINOMEscan competition binding
EXPERIMENTAL_SETUP: read-out: %Inh ANKK1
PROPERTY_MEASURED: inhibition at 1 µM (%)

{"COMPOUND": "O=c1cc(N2CCOCC2)nc2n(Cc3cccc(Cl)c3Cl)c(C3CC3)nn12 [UNC10225469A]", "PROPERTY_MEASURED": "inhibition at 1 µM", "UNIT_LABEL": "%", "DATA_VALUE": 0}
{"COMPOUND": "Cc1ccc(NC(=O)Nc2cccc(C(F)(F)F)c2)cc1 [UNC10225187A]", "PROPERTY_MEASURED": "inhibition at 1 µM", "UNIT_LABEL": "%", "DATA_VALUE": 0}
{"COMPOUND": "Cn1cc(-c2cnc(N)c3c(-c4ccc5c(c4)CCN5C(=O)Cc4ccccc4)csc23)cn1 [UNC10225012A]", "PROPERTY_MEASURED": "inhibition at 1 µM", "UNIT_LABEL": "%", "DATA_VALUE": 0}
{"COMPOUND": "COc1cccc(OC)c1C(=O)Nc1cccc(-c2nn3ccccc3c2-c2ccnc(Nc3cccc(F)c3)n2)c1 [UNC10225310A]", "PROPERTY_MEASURED": "inhibition at 1 µM", "UNIT_LABEL": "%", "DATA_VALUE": 93.2}
{"COMPOUND": "CS(=O)(=O)Cc1ccc(Nc2nccc(-c3c(-c4cccc(NC(=O)C5CCCCC5)c4)nn4ncccc34)n2)cc1 [UNC10225159A]", "PROPERTY_MEASURED": "inhibition at 1 µM", "UNIT_LABEL": "%", "DATA_VALUE": 0}

###

SYSTEM: UniProt P00533
Sequence (P00533 25-1210): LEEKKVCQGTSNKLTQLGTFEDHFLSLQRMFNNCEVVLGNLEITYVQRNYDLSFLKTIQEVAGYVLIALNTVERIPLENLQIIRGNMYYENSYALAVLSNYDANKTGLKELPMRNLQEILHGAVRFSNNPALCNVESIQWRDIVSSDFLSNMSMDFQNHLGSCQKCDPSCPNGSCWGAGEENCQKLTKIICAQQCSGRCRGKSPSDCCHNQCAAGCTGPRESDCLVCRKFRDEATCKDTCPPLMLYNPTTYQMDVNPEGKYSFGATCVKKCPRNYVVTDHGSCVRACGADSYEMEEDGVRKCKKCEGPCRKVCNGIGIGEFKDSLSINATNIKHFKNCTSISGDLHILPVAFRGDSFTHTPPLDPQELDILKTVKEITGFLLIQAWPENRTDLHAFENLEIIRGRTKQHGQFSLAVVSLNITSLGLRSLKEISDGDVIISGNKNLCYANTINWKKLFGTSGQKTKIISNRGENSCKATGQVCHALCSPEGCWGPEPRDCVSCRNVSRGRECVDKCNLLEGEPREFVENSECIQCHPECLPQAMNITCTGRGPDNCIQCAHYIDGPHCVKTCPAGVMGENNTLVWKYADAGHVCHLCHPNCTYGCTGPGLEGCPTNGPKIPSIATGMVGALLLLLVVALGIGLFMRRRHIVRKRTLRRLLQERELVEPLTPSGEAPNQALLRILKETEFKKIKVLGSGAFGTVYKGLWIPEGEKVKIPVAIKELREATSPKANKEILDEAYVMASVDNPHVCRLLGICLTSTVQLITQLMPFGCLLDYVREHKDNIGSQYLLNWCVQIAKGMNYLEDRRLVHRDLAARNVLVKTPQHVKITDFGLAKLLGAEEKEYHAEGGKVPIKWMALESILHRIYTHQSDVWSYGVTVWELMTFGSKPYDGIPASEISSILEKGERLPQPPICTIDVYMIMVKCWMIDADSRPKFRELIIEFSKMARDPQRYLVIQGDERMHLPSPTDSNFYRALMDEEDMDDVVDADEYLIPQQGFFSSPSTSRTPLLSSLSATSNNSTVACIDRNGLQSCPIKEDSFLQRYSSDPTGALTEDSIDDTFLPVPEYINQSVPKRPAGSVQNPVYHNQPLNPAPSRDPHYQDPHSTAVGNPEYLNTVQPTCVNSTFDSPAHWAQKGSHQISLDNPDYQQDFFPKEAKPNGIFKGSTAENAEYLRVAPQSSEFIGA
ASSAY_METHOD_TEXT: KINOMEscan competition binding
EXPERIMENTAL_SETUP: read-out: %Inh EGFR

{"MOLECULE": "COc1cccc(OC)c1C(=O)Nc1cccc(-c2nn3ccccc3c2-c2ccnc(Nc3cccc(F)c3)n2)c1 [UNC10225310A]", "SYSTEM": "UniProt P00533", "inhibition at 1 µM / %": 91.7}
{"MOLECULE": "O=c1cc(N2CCOCC2)nc2n(Cc3cccc(Cl)c3Cl)c(C3CC3)nn12 [UNC10225469A]", "SYSTEM": "UniProt P00533", "inhibition at 1 µM / %": 0}
{"MOLECULE": "Cn1cc(-c2cnc(N)c3c(-c4ccc5c(c4)CCN5C(=O)Cc4ccccc4)csc23)cn1 [UNC10225012A]", "SYSTEM": "UniProt P00533", "inhibition at 1 µM / %": 3}
{"MOLECULE": "CS(=O)(=O)Cc1ccc(Nc2nccc(-c3c(-c4cccc(NC(=O)C5CCCCC5)c4)nn4ncccc34)n2)cc1 [UNC10225159A]", "SYSTEM": "UniProt P00533", "inhibition at 1 µM / %": 68}
{"MOLECULE": "Cc1ccc(NC(=O)Nc2cccc(C(F)(F)F)c2)cc1 [UNC10225187A]", "SYSTEM": "UniProt P00533", "inhibition at 1 µM / %": 0}
